- Read-out: CD69, CD69 (gene 969)
- assay_summary: BSK_SAg_CD69: BioMAP Diversity Plus: SAg Assay for CD69 Biomarker Activity (AID 2283089)
- run_conditions: primary human HUVEC with PBMC; actives raise or lower the signal
Activity calls are given as the source filed them. How the source made its calls: active means hit-call score of the fitted dose curve at least 0.9, where 1 is the maximum; inactive means score below 0.9.
Select the correct class. Options are 1 = active, 0 = inactive and nothing else.

Examples from the recorded data:
compound	class_assignment
Cc1ccc(N)cc1O	0
CC(C)CCO	0
CCCCCCCCCCCCCCCO	1
O=C1CCC(N2C(=O)c3ccccc3C2=O)C(=O)N1 (configuration not stated)	0
Fc1ccccc1[C@@H](F)COC1CCC(Nc2ncnc3[nH]ncc23)CC1 (some centres not stated)	1
CCN(C(=O)c1cc(C)cc(OC[C@H](C)Nc2ccncc2)c1)C(C)C	0
C=CC(=C)CCC=C(C)C	0
CCCCCCCCCCCCc1ccccc1	0
CC(C)=CCCC(C)=CC=O	0
Oc1ccc2c(c1)-c1ccccc1C2	0

Query string: Outcome logged for CCOC(=O)c1ccc(C2CCC(NC[C@H](O)COc3ccc(O)c(NS(C)(=O)=O)c3)CC2)cc1 (some centres not stated) in this assay:
Result string: 1

Query string: Outcome logged for `Cc1c(-c2cccnc2)c2ccccc2n1CCCCC(=O)O` in this assay:
Result string: 0

Query string: Outcome logged for `O=P(OC(CCl)CCl)(OC(CCl)CCl)OC(CCl)CCl` in this assay:
Result string: 0

====

- assay_summary: ATG_Oct_MLP_CIS: Attagene CIS-FACTORIAL HepG2 Assay for human Octamer-Binding Transcription Factor (Oct) (AID 2282993)
- run_conditions: HepG2 Attagene cis-factorial Oct reporter, mRNA; actives raise or lower the signal
Calls of active or inactive are those of the source. The calls were made as follows: active = hit-call score of the fitted dose curve at least 0.9, where 1 is the maximum; inactive = score below 0.9.
Select the correct class. Options are active, inactive and nothing else.

molecule	class_assignment
CCCCCCc1ccc(O)cc1O	active
CCCCCCCCO	inactive
COc1cccc(-c2ccc(/C=C\CN3CCCCCC3)cc2Cl)c1	active
O=C(O)CC(O)C(=O)O (stereo not given)	inactive
CCCCC(CC)COC(=O)CCCCCCCCC(=O)OCC(CC)CCCC (stereo not given)	inactive
CCCN(C1CCN(C(=O)C2CCNCC2)CC1)[C@@H]1CCc2ccc(OC)cc2C1	active
O=C(NS(=O)(=O)/C=C/c1ccccc1)c1ccc(F)cc1Cl	inactive
CCCCC(CC)COC(=O)c1ccc(C(=O)OCC(CC)CCCC)cc1 (stereo not given)	inactive
CCNc1ccccc1	inactive
CC(C)=CCCC(C)CCO (stereo not given)	inactive

Query string: Outcome logged for `CCC(C)(C)C(=O)O[C@H]1C[C@@H](C)C=C2C=C[C@H](C)[C@H](CC[C@@H]3C[C@@H](O)CC(=O)O3)[C@H]21` in this assay:
Result string: inactive

Query string: Outcome logged for `CNCc1ccc(NC(=O)c2c[nH]c3c2C(=O)CCC3)cc1` in this assay:
Result string: inactive

====

- Read-out: Tumor necrosis factor (Homo sapiens)
- assay_summary: BSK_LPS_TNFa: BioMAP Diversity Plus: LPS Assay for Tumour Necrosis Factor alpha (TNFa) Biomarker Activity (AID 2283085)
- run_conditions: primary human HUVEC with PBMC; actives raise or lower the signal
Activity calls are given as the source filed them. The calls were made as follows: active = hit-call score of the fitted dose curve at least 0.9, where 1 is the maximum; inactive = score below 0.9.
Select the correct class. Options are active, inactive and nothing else.

Examples from the recorded data:
compound	class_assignment
Cn1c(=O)c2c(ncn2C)n(C)c1=O	inactive
CCCCC(CC)COC(=O)CCCCCCCCC(=O)OCC(CC)CCCC (stereo unspecified)	inactive

Query string: Outcome logged for `CC(=O)c1ccc2c(c1)[C@H](NC(=O)c1ccc(F)cc1)[C@@H](O)C(C)(C)O2` in this assay:
Result string: inactive

Query string: Outcome logged for O=C1CCC(N2C(=O)c3ccccc3C2=O)C(=O)N1 (stereo unspecified) in this assay:
Result string: inactive

Query string: Outcome logged for `COc1cccc(-c2ccc(/C=C\CN3CCCCCC3)cc2Cl)c1` in this assay:
Result string: inactive

Query string: Outcome logged for `NC(=O)NO` in this assay:
Result string: inactive

Query string: Outcome logged for `O=C(OC[C@H]1O[C@@H](OC(=O)c2cc(O)c(O)c(OC(=O)c3cc(O)c(O)c(O)c3)c2)[C@H](OC(=O)c2cc(O)c(O)c(OC(=O)c3cc(O)c(O)c(O)c3)c2)[C@@H](OC(=O)c2cc(O)c(O)c(OC(=O)c3cc(O)c(O)c(O)c3)c2)[C@@H]1OC(=O)c1cc(O)c(O)c(OC(=O)c2cc(O)c(O)c(O)c2)c1)c1cc(O)c(O)c(OC(=O)c2cc(O)c(O)c(O)c2)c1` in this assay:
Result string: inactive

Query string: Outcome logged for `CC(=O)OCCC(C)C` in this assay:
Result string: inactive

Query string: Outcome logged for `O=C(O)CCN(C1(C(=O)NO)CCCC1)S(=O)(=O)c1ccc(Oc2ccc(F)cc2)cc1` in this assay:
Result string: inactive

Query string: Outcome logged for CCCCC(CC)COC(=O)c1ccc(C(=O)OCC(CC)CCCC)cc1 (stereo unspecified) in this assay:
Result string: inactive
